Experiment: chemical genetic growth profiling, strain panel (AID 1159580);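 also: tested at 20 µM; growth read once vehicle control cultures reached saturation at 30 °C; 1 = growth at the plate median or of vehicle wells; lower values mean less growth of the strain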
Conditions: S. cerevisiae deletion strains, growth OD, locus YHR142W, strain chs7, hits give low values
Screen size: about 5,500 compounds; about 2,000 (36%) were called active. Roughly 18% stayed inconclusive and do not appear here. Some of the results follow.
normalized growth overview
Please give only the number in your answer, with no unit.

Using the record for CC(=O)OCC1=C(C(=O)O)N2C(=O)[C@@H](NC(=O)CCCC(N)C(=O)O)C2SC1 (some centres not stated) , state its measured normalized growth.
0.994

Please list normalized growth recorded for the compound O=C1c2ccccc2C(=O)C1c1ccccc1
1

Look up and report measured normalized growth for this entry: CC(=O)CC1CCCCN1 (configuration not stated)
1.02

// switching to the query compound
Give recorded normalized growth. CN(C)CCc1c[nH]c2ccc(CS(=O)(=O)N3CCCC3)cc12
0.976

* * *

Test: chemical genetic growth profiling, strain panel (AID 1159580);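 also: tested at 20 µM; growth read once vehicle control cultures reached saturation at 30 °C; 1 = growth at the plate median or of vehicle wells; lower values mean less growth of the strain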
Conditions: S. cerevisiae deletion strains, growth OD, locus YOL012C, strain htz1
Screen size: about 5,500 compounds; about 2,000 (36%) were called active. Not shown: some 18% with an inconclusive outcome. The list shows a part of the results. Where a SMILES comes first, the peptide text is derived from it. Bridges are numbered along the chain shown (N, C = ends). [ ]: non-standard residue; d: D form. The star is where a group is joined. Octanoyl(6-Me) = CCC(C)CCCCC(=O)*; Orn = NCCC[CH](N)C(=O)O; Dab = NCC[CH](N)C(=O)O
Criterion: normalized growth meeting or surpassing 0.9. Met: Satisfied. Not met: Not satisfied.

Form field: normalized growth at least 0.9? Entry: COC(=O)[C@]1(C)CC[C@]2(C)CC[C@]3(C)C4=CC=C5C(=CC(=O)C(O)=C5C)[C@]4(C)CC[C@@]3(C)[C@@H]2C1
Not satisfied

Reported normalized growth reaches at least 0.9 for COc1cc(O)cc(OC)c1OC ?
Satisfied

// inclusive: normalized growth at least 0.9? input: COc1cc(/C=C/C=O)cc(OC)c1OC
Satisfied

***
Determine whether this molecule has normalized growth no lower than 0.9: CC(=O)Oc1cc2c(c(C)c1OC(C)=O)CC1OC13C2(C)CCC1(C)C2CC(C)(C(=O)O)CCC2(C)CCC13C (stereo not drawn)
Satisfied

Dear colleague, could you confirm whether COc1cc(NS(=O)(=O)c2ccc(N)cc2)ncn1 has normalized growth at or above 0.9?
Satisfied

Is the recorded value of normalized growth equal to or greater than 0.9 for this molecule? CCC(C)CCCCC(=O)NC(CCN)C(=O)NC(C(=O)NC(CCN)C(=O)NC1CCNC(=O)C(C(C)O)NC(=O)C(CCN)NC(=O)C(CCN)NC(=O)C(CC(C)C)NC(=O)C(Cc2ccccc2)NC(=O)C(CCN)NC1=O)C(C)O (stereo not drawn) ({Octanoyl(6-Me)}-[Dab]T[Dab][Dab][Dab]FL[Dab][Dab]T; lactam 4-C; configuration not given here)
Satisfied

Please indicate if the recorded normalized growth for CC1=C(O)C(=O)C=C2C1=CC=C1[C@@]2(C)CC[C@@]2(C)[C@@H]3C[C@](C)(C(=O)O)CC[C@]3(C)CC[C@]12C meets or exceeds 0.9.
Not satisfied

State whether the measured normalized growth reaches 0.9, counting equality as reaching it, for C=C(C)[C@@H]1CC[C@]2(CO)CC[C@]3(C)[C@H](CCC4[C@@]5(C)CC[C@H](O)C(C)(C)C5CC[C@]43C)C12 (stereo partly drawn)
Not satisfied

Determine whether this molecule has normalized growth no lower than 0.9: Cc1onc(-c2c(Cl)cccc2Cl)c1C(=O)N[C@@H]1C(=O)N2[C@@H]1SC(C)(C)[C@@H]2C(=O)O
Satisfied

Dear colleague, could you confirm whether CC(=O)O[C@H]1CC[C@]2(C)C3CC[C@@]4(C)C(CC5O[C@@]6(CCC(C)CO6)[C@@H](C)C54)C3CC[C@@H]2C1 (stereo partly drawn) has normalized growth at or above 0.9?
Not satisfied

Kindly determine if normalized growth recorded for COc1ccc(C(=O)c2ccccc2)c(O)c1O is above or exactly 0.9.
Not satisfied

Could you tell me if the measured normalized growth of O=C(CCBr)N1CCN(C(=O)CCBr)CC1 reaches 0.9 or more?
Not satisfied

hey, is normalized growth for this one >= 0.9? CO[C@@]1(NC(=O)Cc2cccs2)C(=O)N2C(C(=O)O)=C(COC(N)=O)CS[C@@H]21
Satisfied

// inclusive: normalized growth at least 0.9? input: CC(=O)O[C@@H]1CC[C@]2(C)C3CC[C@]4(C)C(=O)CCC4C3CC[C@H]2C1 (stereo partly drawn)
Satisfied

Confirm if normalized growth reported for the molecule CC(C)CC1NC(=O)C(CCCN)NC(=O)C(C(C)C)NC(=O)C2CCCN2C(=O)C(Cc2ccccc2)NC(=O)C(CC(C)C)NC(=O)C(CCCN)NC(=O)C(C(C)C)NC(=O)C2CCCN2C(=O)C(Cc2ccccc2)NC1=O (stereo not drawn) (cyclo(FPV[Orn]LFPV[Orn]L); configuration not given here) is 0.9 or above.
Not satisfied

Can COc1cc2c(cc1OC)[C@@]13CCN4CC5=CCOC6CC(=O)N2C1[C@H]6[C@H]5C[C@H]43 (stereo partly drawn) be said to have normalized growth at or above 0.9?
Satisfied

Please check the record CCCCCCCCCCCCCCCCCCOCC(O)CO (stereo not drawn) and state if its normalized growth is at or above 0.9.
Not satisfied

# bool: normalized growth of Cc1onc(-c2ccccc2Cl)c1C(=O)N[C@@H]1C(=O)N2[C@@H]1SC(C)(C)[C@@H]2C(=O)O >= 0.9
Satisfied

Data origin, for the record: PubChem BioAssay AID1159580
